Below: a set of entries, each annotated with reported IC50.
# Study target: Peptide deformylase 1A, chloroplastic/mitochondrial (Arabidopsis thaliana, UniProt Q9FV53)
# Sequence (Q9FV53 whole entry): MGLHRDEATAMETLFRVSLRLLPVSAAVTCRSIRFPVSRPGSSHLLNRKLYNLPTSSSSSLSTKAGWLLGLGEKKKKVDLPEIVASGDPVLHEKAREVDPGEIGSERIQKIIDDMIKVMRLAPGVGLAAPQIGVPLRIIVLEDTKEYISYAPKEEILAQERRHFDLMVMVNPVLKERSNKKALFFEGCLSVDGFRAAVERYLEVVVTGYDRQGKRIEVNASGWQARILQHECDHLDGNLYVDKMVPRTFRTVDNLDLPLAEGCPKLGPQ
A number alone suffices; assume µM.

O=C(CS)Cc1c[nH]c2ccc(Br)cc12; 200

Here is the next item to consider.
For Peptide deformylase 1A, chloroplastic/mitochondrial (Arabidopsis thaliana, UniProt Q9FV53), provide IC50 of Cc1c(CNO)c2cc(Br)ccc2n1S(=O)(=O)c1ccccc1 please. 500
